target: NSP14 (Severe acute respiratory syndrome coronavirus 2, UniProt P0DTD1); test: NSP14 MTase inhibition assay at 37° C. (MTase-Glo SAH detection); assay type: biochemical, SARS-CoV-2; conditions: 0.3 nM NSP14, 2.5 μM SAM, 2.5 μM GpppA RNA, 45 min at 37° C.; read-out: Nsp14 Mtase Inh. IC50

{"columns": ["COMPOUND", "RESULT UNIT", "LT GT EQ", "IC50"],
 "data": [
  ["Cc1c(S(=O)(=O)c2ccc(C(N)=O)cc2)cc(C(=O)NCc2cccc3cnn(C)c23)n1C", "nM", "=", 53],
  ["Cc1c(S(=O)(=O)c2ccc3[nH]ncc3c2)cc(C(=O)NC2CCCN(c3ncc(F)cn3)C2)n1C (stereo not drawn)", "nM", "=", 7.9],
  ["Cc1c(S(=O)(=O)c2cccc(C#N)c2)cc(C(=O)NCc2cccc3cnn(C)c23)n1C", "nM", "=", 1.7],
  ["Cc1c(S(=O)(=O)c2ccc3[nH]ncc3c2)cc(C(=O)N[C@@H]2CCN(c3ccccc3C(F)(F)F)C2)n1C", "nM", "=", 5.1],
  ["Cc1c(S(=O)(=O)c2ccc3[nH]ncc3c2)cc(C(=O)N[C@@H]2CCN(c3ccnnc3)C2)n1C", "nM", "=", 0.53],
  ["Cc1c(S(=O)(=O)c2ccc3[nH]ncc3c2)cc(C(=O)N[C@@H]2CCN(c3ncc(Cl)cn3)C2)n1C", "nM", "=", 0.42],
  ["Cc1c(S(=O)(=O)c2ccc3[nH]ncc3c2)cc(C(=O)N[C@@H]2CCN(c3ccccc3OC(F)(F)F)C2)n1C", "nM", "=", 27],
  ["Cc1c(S(=O)(=O)c2ccc3[nH]ncc3c2)cc(C(=O)N[C@@H]2CCN(c3ccnc(C(F)(F)F)n3)C2)n1C", "nM", "<", 0.15],
  ["Cc1c(S(=O)(=O)c2ccc3[nH]ncc3c2)cc(C(=O)NC2CN(c3ncc(F)cn3)C[C@@H]2F)n1C (stereo partly drawn)", "nM", "=", 0.77]
]}

###

biological target: NSP14 (Severe acute respiratory syndrome coronavirus 2, UniProt P0DTD1); experiment: NSP14 MTase inhibition assay at 37° C. (MTase-Glo SAH detection); type: biochemical, SARS-CoV-2; conditions: 37° C., 0.3 nM NSP14, 2.5 μM SAM, 2.5 μM GpppA RNA; read-out: Nsp14 Mtase Inh. IC50
pIC50: −log10 of the molar value.

{"columns": ["MOLECULE", "LT GT EQ", "pIC50"],
 "data": [
  ["Cc1c(S(=O)(=O)c2ccc3[nH]ncc3c2)cc(C(=O)NCc2n[nH]c(=O)c3ccccc23)n1C [B.121]", ">", 9.82],
  ["Cc1c(S(=O)(=O)c2ccc3[nH]ncc3c2)cc(C(=O)NCc2c(Cl)ccc(=O)n2C)n1C [B.174]", "=", 9.15],
  ["CCn1nccc1CNC(=O)c1cc(S(=O)(=O)c2ccc3[nH]ncc3c2)c(C)n1C [B.166]", "=", 9.02],
  ["Cc1c(S(=O)(=O)c2ccc3[nH]ncc3c2)cc(C(=O)NCc2cccc3c2CCC(=O)N3C)n1C [B.25]", ">", 9.82],
  ["Cc1c(S(=O)(=O)c2ccc3[nH]ncc3n2)cc(C(=O)NCc2cccc3cnn(C4CC4)c23)n1C [B.50]", "=", 7.29],
  ["Cc1c(S(=O)(=O)c2ccc3[nH]ncc3c2)cc(C(=O)NCc2c[nH]c(=O)c3cnn(C)c23)n1C [B.115]", "=", 9.77]
]}

###

target: UniProtKB P0DTD1; assay: NSP14 MTase inhibition assay at 37° C. (MTase-Glo SAH detection); assay type: biochemical, SARS-CoV-2; conditions: 0.3 nM NSP14, 2.5 μM SAM, 2.5 μM GpppA RNA, 45 min at 37° C.; read-out: Nsp14 Mtase Inh. IC50
pIC50: −log10 of the molar value.
OUTCOME MEASURE: pIC50

{"columns": ["MOLECULE", "LT GT EQ", "OBSERVED VALUE"],
 "data": [
  ["COc1cnc(N2CC[C@@H](NC(=O)c3cc(S(=O)(=O)c4ccc5[nH]ncc5c4)c(C)n3C)C2)cn1", ">", 9.82],
  ["Cc1c(S(=O)(=O)c2ccc3[nH]ncc3c2)cc(C(=O)N[C@@H]2CCN(c3cnn(C)c(=O)c3)C2)n1C", ">", 9.82],
  ["Cc1c(S(=O)(=O)c2ccccc2)cc(C(=O)NCc2cccc3cnn(C)c23)n1C", "=", 7.82],
  ["Cc1c(S(=O)(=O)c2ccc3[nH]ncc3c2)cc(C(=O)N[C@@H]2CCN(Cc3ccc(C#N)cn3)C2)n1C", "=", 7.85],
  ["Cc1c(S(=O)(=NCCO)c2ccc3[nH]ncc3c2)cc(C(=O)N[C@@H]2CCN(c3ncc(F)cn3)C2)n1C (stereo partly drawn)", "=", 9.34],
  ["Cc1c(S(=O)(=O)c2ccc3[nH]ncc3c2)cc(C(=O)N[C@H]2CN(c3ncc(F)cn3)CC23CC3)n1C", "=", 9.39]
]}

###

molecular target: UniProt P0DTD1; assay: NSP14 MTase inhibition assay at 37° C. (MTase-Glo SAH detection); assay type: biochemical, SARS-CoV-2; details: 37° C., 0.3 nM NSP14, 2.5 μM SAM, 2.5 μM GpppA RNA; read-out: Nsp14 Mtase Inh. IC50
Label label 1 when IC50 is strictly below 0.5 nM; at or above that, label label 0.

{"columns": ["COMPOUND", "QUALITATIVE LABEL"],
 "data": [
  ["Cc1c(S(=O)(=O)c2ccc3c(cnn3C)c2)cc(C(=O)NCc2c(F)ccnc2N2CCC(C(=O)NS(C)(=O)=O)C2)n1C (centres unmarked)", "label 1"],
  ["Cc1c(S(=O)(=O)c2ccc3[nH]ncc3c2)cc(C(=O)NCc2c(F)ccc3nnn(C4CC4)c23)n1C", "label 1"],
  ["Cc1c(S(=O)(=O)c2ccc3[nH]ncc3c2)cc(C(=O)NCc2c(F)ccc(=O)n2C)n1C", "label 1"],
  ["Cc1c(S(=O)(=O)c2ccc3[nH]ncc3c2)cc(C(=O)NCc2ccn3nccc3c2)n1C", "label 0"],
  ["Cc1c(S(=O)(=O)c2ccc3[nH]ncc3c2)cc(C(=O)NC(C)c2ccnn2C)n1C (racemic)", "label 0"],
  ["Cc1c(S(=O)(=O)c2ccc3[nH]ncc3c2)cc(C(=O)NCc2c(Cl)cccc2Cl)n1C", "label 1"],
  ["Cc1c(S(=O)(=O)c2ccc3[nH]ncc3c2)cc(C(=O)NCc2cccc(OCC(F)(F)F)c2)n1C", "label 0"],
  ["Cc1c(S(=O)(=O)c2ccc3[nH]ncc3c2)cc(C(=O)NCc2nccc3cnn(C)c23)n1C", "label 0"],
  ["Cc1c(S(=O)(=O)c2ccc3[nH]ncc3c2)cc(C(=O)NCc2cccc3ncn(C4CC4)c23)n1C", "label 1"],
  ["Cc1c(S(=O)(=O)c2ccc3c(c2)CC(=O)N3)cc(C(=O)NCc2cccc3cnn(C)c23)n1C", "label 0"],
  ["Cc1c(S(=O)(=O)c2ccc3[nH]ncc3c2)cc(C(=O)NCc2c[nH]c(=O)c3ccccc23)n1C", "label 0"]
]}

###

Catalogue of compounds with associated IC50
biological target: NSP14 (Severe acute respiratory syndrome coronavirus 2, UniProt P0DTD1); assay: NSP14 MTase inhibition assay at 37° C. (MTase-Glo SAH detection); format: biochemical, SARS-CoV-2; conditions: 37° C., 0.3 nM NSP14, 2.5 μM SAM, 2.5 μM GpppA RNA; read-out: Nsp14 Mtase Inh. IC50
OUTCOME MEASURE: IC50

{"columns": ["COMPOUND", "OUTCOME MEASURE", "OBSERVED VALUE"],
 "data": [
  ["Cc1c(S(=O)(=O)c2cc(F)c3[nH]ncc3c2)cc(C(=O)NCc2c(F)ccc3cnn(C4CC4)c23)n1C [B.63]", "IC50", "< 0.15 nM"],
  ["Cc1c(S(=O)(=O)c2ccc3[nH]ncc3c2)cc(C(=O)NCc2c(F)cc(F)c3cnn(C)c23)n1C [B.69]", "IC50", "< 0.15 nM"],
  ["Cc1c(S(=O)(=O)c2ccc3[nH]ncc3c2)cc(C(=O)NCc2ncnc3ncn(C)c23)n1C [B.129]", "IC50", "< 0.15 nM"]
]}

###

molecular target: NSP14 (Severe acute respiratory syndrome coronavirus 2, UniProt P0DTD1); assay: NSP14 MTase inhibition assay at 37° C. (MTase-Glo SAH detection); format: biochemical, SARS-CoV-2; settings: 0.3 nM NSP14, 2.5 μM SAM, 2.5 μM GpppA RNA, 45 min at 37° C.; read-out: Nsp14 Mtase Inh. IC50
pIC50: −log10 of the molar value.
Catalogue of compounds with associated pIC50

{"columns": ["COMPOUND", "pIC50"],
 "data": [
  ["Cc1c(S(=O)(=O)c2ccc3[nH]ncc3c2)cc(C(=O)NCc2cccc3cnn(C4CC4)c23)n1C", 8.82],
  ["Cc1c(S(=O)(=O)c2ccc3[nH]ncc3c2)cc(C(=O)N[C@@H]2CCN(c3nccc(C(F)(F)F)n3)C2)n1C", 9.09],
  ["Cc1c(S(=O)(=O)c2ccc3[nH]ncc3c2)cc(C(=O)N[C@@H]2CCN(c3ncc(C#N)cn3)C2)n1C", 9.20],
  ["COCC1(NC(=O)c2cc(S(=O)(=O)c3ccc4[nH]ncc4c3)c(C)n2C)CCN(c2ncc(F)cn2)C1 (single isomer, unassigned) [A.114]", 9.06],
  ["Cc1c(S(=O)(=O)c2ccc3occc3c2)cc(C(=O)NCc2cccc3cnn(C)c23)n1C", 8.74]
]}
